The measurements presented in this section are drawn from patent US20240075137A1.

# ASSAY_TARGET: T1, human PVRIG on cells (human, UniProt Q6DKI7 1-326)
# T1 construct: whole, on cells; over-expressed on HEK cells or endogenous on Jurkat and CD8 T cells; also called hPVRIG; HEK hPVRIG cells
# T1 sequence (looked up): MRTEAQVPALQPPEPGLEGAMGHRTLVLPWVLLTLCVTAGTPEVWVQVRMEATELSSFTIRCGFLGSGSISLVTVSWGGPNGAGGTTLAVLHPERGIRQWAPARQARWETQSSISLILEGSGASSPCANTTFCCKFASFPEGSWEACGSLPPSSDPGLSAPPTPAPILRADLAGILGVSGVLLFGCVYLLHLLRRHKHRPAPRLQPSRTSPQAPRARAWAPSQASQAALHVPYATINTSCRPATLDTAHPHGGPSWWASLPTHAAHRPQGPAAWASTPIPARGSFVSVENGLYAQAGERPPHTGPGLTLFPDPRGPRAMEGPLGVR
# ASSAY_SUMMARY: FACS, human PBMC, CD8+ T cells, 10ug/ml
QUANTITY_NAME: gMFIr Human CD8+ T cells
The answer should be a number; do not append a unit.

CHA.7.549 (antibody, V domains shown) VH: QVQLQQPGTELVKPGASVKLSCKASGFTFTTHWMHWVRQRPGQGLEWIGNIYPSNGGSNYNEKFKTKATLTVDRSSSTAYMHLSSLTSEDSAVYYCARRVNWDGYYFDYWGQGTTLTVSS VL: DIVMTQSQKFMSTSVGDRVSVTCKASQNVGTNVAWYQQKPGQSPKLLIYSASYRYSGVPDRFTGSGSGTDFTLTISNVQSEDLADYFCQQYNSYPLTFGGGTKLEIK :: 1.42

Turning now to a further record.
Need gMFIr Human CD8+ T cells, item CHA.7.534 (antibody, V domains shown) VH: EVQLQQSGAELVKPGASVRLSCTASGFSIRDTYIHWVKQRPEQGLDWIGKIDPANGKSEYDPKFQGRATMTTDTSSNTAYLQLSSLTSEDTAVYYCTRYGYYPYFDVWGAGTTVTVFS VL: SIVMTQTPKFLLVSAGDRVAITCKASQSVRHDVVWYQQKPGQSPKLLIYYASSRYTGVPDRFTGSGYGTDFTFTISTVQAEDLALYFCLQDFSSPWTFGGGTKLEIK
1.96
